Below are IC50 values measured for trypsin (Bos taurus).
experimentalReadout: IC50 (nM)

(a) CN(C)C(=O)c1ccc(OC(=O)c2ccc(NC(=N)N)cc2)cc1
(b) CN(C)S(=O)(=O)c1ccc(OC(=O)c2ccc(NC(=N)N)cc2)cc1
Inquiry: Of a versus b , which is the one with smaller reported IC50? Please reply using the label of the selected record.
Reply text: b
(b: 2 nM, a: 11 nM)

----------
Lab note: pIC50 readings collected with plasmin (Homo sapiens, UniProt P00747) for the following molecules.
Sequence (P00747 97-580 limits assumed): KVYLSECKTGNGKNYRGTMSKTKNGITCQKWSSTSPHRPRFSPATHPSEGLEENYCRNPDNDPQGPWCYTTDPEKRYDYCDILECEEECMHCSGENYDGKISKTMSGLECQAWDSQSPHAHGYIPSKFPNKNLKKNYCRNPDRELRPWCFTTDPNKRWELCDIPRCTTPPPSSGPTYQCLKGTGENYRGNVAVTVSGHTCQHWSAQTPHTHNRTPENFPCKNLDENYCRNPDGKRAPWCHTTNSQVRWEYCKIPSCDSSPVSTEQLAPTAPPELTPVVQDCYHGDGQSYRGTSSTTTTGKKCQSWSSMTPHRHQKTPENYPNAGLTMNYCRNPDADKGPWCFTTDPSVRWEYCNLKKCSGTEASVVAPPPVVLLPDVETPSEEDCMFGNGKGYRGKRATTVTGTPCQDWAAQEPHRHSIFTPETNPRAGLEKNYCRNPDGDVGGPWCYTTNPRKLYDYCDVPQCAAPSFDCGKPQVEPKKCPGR
Sequence (P00747 581-810 limits assumed): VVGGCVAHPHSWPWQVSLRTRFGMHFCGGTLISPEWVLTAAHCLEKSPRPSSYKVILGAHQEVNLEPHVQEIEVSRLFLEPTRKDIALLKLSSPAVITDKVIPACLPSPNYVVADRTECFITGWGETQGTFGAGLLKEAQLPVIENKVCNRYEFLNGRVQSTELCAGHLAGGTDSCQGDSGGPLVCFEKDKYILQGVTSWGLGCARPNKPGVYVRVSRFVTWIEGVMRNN
pIC50: −log10 of the molar value.
experimentalReadout: pIC50

> print(dat)
                                   molecule                           assayedtarget  experimentalreadout  recordedmeasurement
1  CNC(=O)Cc1ccc(OC(=O)c2ccc(NC(=N)N)cc2)cc1 [Compound No. 5]  plasmin (Homo sapiens, UniProt P00747)                pIC50                 6.39

(P) CNS(=O)(=O)c1ccc(OC(=O)c2ccc(NC(=N)N)cc2)cc1 [Compound No. 1]
(Q) CN(C)S(=O)(=O)c1ccc(OC(=O)c2ccc(NC(=N)N)cc2)cc1 [Compound No. 2]
Inquiry: Identify the entry with the smaller pIC50: P or Q . Use the label to indicate which entry you chose.
Reply text: Q
(Q: 8.19, P: 8.51)

Cited source: patent US4283418A
